- assayed target: NAD-dependent protein deacetylase sirtuin-2 (Homo sapiens, UniProt Q8IXJ6)
- Sequence (Q8IXJ6 whole entry): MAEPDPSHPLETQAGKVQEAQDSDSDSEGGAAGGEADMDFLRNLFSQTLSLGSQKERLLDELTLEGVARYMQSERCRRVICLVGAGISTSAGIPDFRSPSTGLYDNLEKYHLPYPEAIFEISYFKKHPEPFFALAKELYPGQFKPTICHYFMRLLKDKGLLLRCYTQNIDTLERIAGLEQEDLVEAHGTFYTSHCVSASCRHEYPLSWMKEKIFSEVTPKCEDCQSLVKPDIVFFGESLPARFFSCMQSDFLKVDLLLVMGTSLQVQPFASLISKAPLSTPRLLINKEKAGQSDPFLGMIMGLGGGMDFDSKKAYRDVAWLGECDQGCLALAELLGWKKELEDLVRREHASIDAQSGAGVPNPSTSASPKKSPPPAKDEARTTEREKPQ
- experiment notes: Inhibition of recombinant SIRT2 preincubated for 5 mins before addition of substrate measured after 3 hrs by fluorescence-based assay
Where a SMILES comes first, the peptide text is derived from it. [ ]: non-standard residue; d: D form. Lys(Thioacetyl) = CC(=S)NCCCC[C@H](N)C(=O)O

molecule	IC50 [µM]
CC(=S)NCCCC[C@H](NC(=O)[C@@H](N)CC(=O)O)C(=O)N[C@H](C(=O)O)[C@@H](C)O	175
CC[C@H](C)[C@H](NC(=O)[C@@H](NC(=O)[C@H](CCCCNC(C)=S)NC(=O)[C@H](CCCCN)NC(=O)[C@@H](N)Cc1cnc[nH]1)[C@@H](C)O)C(=O)O (H-HK[Lys(Thioacetyl)]TI-OH)	7.6
CC(=S)NCCCC[C@H](NC(=O)[C@H](CC(=O)O)NC(=O)[C@@H](N)CO)C(=O)N[C@H](C(=O)O)[C@@H](C)O (H-SD[Lys(Thioacetyl)]T-OH)	44
